Values compiled from BindingDB's records for patent US20230399319.

Target: NACHT, LRR and PYD domains-containing protein 3 (Homo sapiens)
Sequence (Q96P20 whole entry, the tested form may be a part): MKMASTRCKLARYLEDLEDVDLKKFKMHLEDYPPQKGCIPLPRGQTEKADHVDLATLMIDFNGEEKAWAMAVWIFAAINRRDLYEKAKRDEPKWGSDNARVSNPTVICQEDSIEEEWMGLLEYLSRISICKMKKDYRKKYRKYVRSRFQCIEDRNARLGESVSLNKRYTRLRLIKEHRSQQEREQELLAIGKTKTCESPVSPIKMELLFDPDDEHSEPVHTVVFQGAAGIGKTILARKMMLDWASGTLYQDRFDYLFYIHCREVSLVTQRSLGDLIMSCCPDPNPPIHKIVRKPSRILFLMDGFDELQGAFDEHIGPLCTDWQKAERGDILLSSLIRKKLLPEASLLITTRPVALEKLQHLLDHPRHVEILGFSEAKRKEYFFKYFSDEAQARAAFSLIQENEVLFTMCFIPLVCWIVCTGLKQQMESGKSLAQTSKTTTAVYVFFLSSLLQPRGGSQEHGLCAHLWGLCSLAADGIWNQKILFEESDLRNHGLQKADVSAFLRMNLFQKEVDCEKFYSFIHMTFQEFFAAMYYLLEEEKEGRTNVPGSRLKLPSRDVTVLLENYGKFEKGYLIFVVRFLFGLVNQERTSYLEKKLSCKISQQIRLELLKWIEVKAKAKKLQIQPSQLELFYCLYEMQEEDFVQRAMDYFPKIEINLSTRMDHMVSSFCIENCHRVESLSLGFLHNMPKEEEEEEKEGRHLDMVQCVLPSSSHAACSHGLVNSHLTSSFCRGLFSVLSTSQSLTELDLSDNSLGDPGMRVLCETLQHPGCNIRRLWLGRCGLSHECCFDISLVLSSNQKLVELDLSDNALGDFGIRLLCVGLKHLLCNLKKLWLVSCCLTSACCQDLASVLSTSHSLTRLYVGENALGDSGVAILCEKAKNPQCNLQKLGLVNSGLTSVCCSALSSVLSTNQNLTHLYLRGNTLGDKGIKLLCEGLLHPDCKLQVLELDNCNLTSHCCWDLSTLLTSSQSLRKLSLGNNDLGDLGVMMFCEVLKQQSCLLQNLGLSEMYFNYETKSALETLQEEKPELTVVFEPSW
Experiment: Evaluation of NLRP3 Inflammasome Inhibitory Activity Assay
pIC50: −log10 of the molar value.
// values below are reported pIC50
Endpoint name: pIC50

[[record]]
compound = "Cc1cc(F)c(C(C)C)cc1Nc1nc(C(=O)NS(=O)(=O)N2CCOC(CO)CC2)co1 (configuration not stated)"
quantitative_result = 7.55

[[record]]
compound = "Cc1ccc(C(F)(F)F)cc1Nc1nc(C(=O)NS(=O)(=O)N2CCC(C#N)C2)co1 (configuration not stated)"
quantitative_result = 6.68

[[record]]
compound = "Cc1ccc(C(F)(F)F)cc1Nc1nc(C(=O)NS(=O)(=O)N2CCN(S(=O)(=O)C(C)C)CC2)co1"
quantitative_result = 7.06

[[record]]
compound = "Cc1ccc(C(F)(F)F)cc1Nc1nc(C(=O)NS(=O)(=O)N(C)CC#N)co1"
quantitative_result = 6.89

[[record]]
compound = "Cc1ccc(C(C)(C)C)cc1Nc1nc(C(=O)NS(=O)(=O)N(C)CCN(C)C)co1"
quantitative_result = 5.72

[[record]]
compound = "Cc1cn(C2CCC2)nc1Nc1nc(C(=O)NS(=O)(=O)N2CCCOCC2)co1"
quantitative_result = 6.10

[[record]]
compound = "Cc1ccc(C(F)(F)F)cc1Nc1nc(C(=O)NS(=O)(=O)N2CCC(C)(C)C2)co1"
quantitative_result = 7.00

